# Test system: HEK-293T
# procedure.summary: Incucyte cell viability with HEK293T; note: unitless GR value; below 1 slowed growth and below 0 cell loss
# Type: toxicity, cell-based
# experimental.conditions: human, 24 h, 10 µM, compound concentration 10 uM, replicate number 2, timepoint 24 hours
reported.metric: Growth Rate

{"molecule": "Cc1cccc(S(=O)(=O)N(C)[C@H](C)CCN2CCC(C)CC2)c1.Cl", "reported.metric": "Growth Rate", "measured": 0.66}
{"molecule": "Cc1cc(C)cc([C@H]2c3cc(C)ccc3NC(=O)CN2C(=O)c2ccc(Br)s2)c1", "reported.metric": "Growth Rate", "measured": 0.83}
{"molecule": "Nc1nccc(-c2ccn3c(N)nccc23)n1", "reported.metric": "Growth Rate", "measured": 1}
{"molecule": "CCN1/C(=C/C(C)=O)Sc2ccc(OC(C)=O)cc21", "reported.metric": "Growth Rate", "measured": 0.53}
{"molecule": "Brc1c(N=C2NCCN2)ccc2nccnc12.O=C(O)C(O)C(O)C(=O)O", "reported.metric": "Growth Rate", "measured": 0.88}
{"molecule": "CC[C@@]1(O)C(=O)OCc2c1cc1n(c2=O)Cc2cc3ccccc3nc2-1 [CAMPTOTHECIN]", "reported.metric": "Growth Rate", "measured": 0.41}
{"molecule": "CNC(=O)c1nn(C)c2c1C(C)(C)Cc1cnc(Nc3ccc(N4CCN(C)CC4)cc3)nc1-2 [MILCICLIB]", "reported.metric": "Growth Rate", "measured": -0.01}
{"molecule": "Nc1nc(-c2ccco2)c2cnn(Cc3ccccc3F)c2n1", "reported.metric": "Growth Rate", "measured": 0.12}
{"molecule": "COc1ccc2c(c1)C(C(=O)N(Cc1ccc(N(C)C)cc1)c1ccc(C(C)C)cc1)CCC2.Cl (centres undefined)", "reported.metric": "Growth Rate", "measured": 0.76}
{"molecule": "CCCCC/C=C\\C/C=C\\C/C=C\\C/C=C\\CCCC(=O)NCC(=O)O [ARACHIDONOYL GLYCINE]", "reported.metric": "Growth Rate", "measured": 0.83}
{"molecule": "CC(C)C[C@@H](NC(=O)[C@H](Cc1ccccc1)NC(=O)CNC(=O)[C@@H](C)NC(=O)[C@@H](N)Cc1ccc(O)cc1)C(=O)O [DADLE]", "reported.metric": "Growth Rate", "measured": 0.91}
{"molecule": "Br.Br.c1ncc(CC2CCNCC2)[nH]1", "reported.metric": "Growth Rate", "measured": 0.94}
{"molecule": "Cc1ccccc1N1CCN(S(=O)(=O)C[C@]23CC[C@H](C[C@@H]2NC(=O)[C@@H](N)CCS(C)(=O)=O)C3(C)C)CC1.Cl", "reported.metric": "Growth Rate", "measured": 0.93}
{"molecule": "CN(C)CCCOc1ccc(-c2cc(NCCCn3cccn3)nc(S(C)(=O)=O)n2)cc1", "reported.metric": "Growth Rate", "measured": 0.97}
{"molecule": "CCCN[C@H]1CCc2nc(N)sc2C1.Cl.Cl", "reported.metric": "Growth Rate", "measured": 0.81}
{"molecule": "CN[C@@H]1C[C@H]2O[C@@](C)([C@@H]1OC)n1c3ccccc3c3c4c(c5c6ccccc6n2c5c31)C(=O)NC4 [STAUROSPORINE]", "reported.metric": "Growth Rate", "measured": 0.09}
{"molecule": "CCCCCCCCc1ccc(CCC(N)(CO)CO)cc1 [FINGOLIMOD]", "reported.metric": "Growth Rate", "measured": -0.4}
{"molecule": "CC(C)CCC[C@@H](C)[C@H]1CC[C@H]2[C@@H]3[C@H](O)C=C4C[C@@H](O)CC[C@]4(C)[C@H]3CC[C@]12C", "reported.metric": "Growth Rate", "measured": 0.96}
{"molecule": "Cc1sc2c(c1C)C(c1ccc(Cl)cc1)=N[C@@H](CC(=O)NCCCCCCCCNC(=O)COc1cccc3c1C(=O)N(C1CCC(=O)NC1=O)C3=O)c1nnc(C)n1-2 (some centres undefined)", "reported.metric": "Growth Rate", "measured": -0.06}
